Biological target: Mitogen-activated protein kinase 1 (Homo sapiens);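 further: reported figure is an averaged percent inhibition of the kinase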
Conditions: at 0.1 µM
Metric Name: inhibition (%)
Express the result in % but write the number alone.

{"Smiles Input": "Cc1cc(O)cc(C)c1/C=C/c1cncc(C(=O)N(C)C)c1", "Quantitative Readout": 2.76}
{"Smiles Input": "N#Cc1c(NC(=O)c2ccccc2F)sc2c1CCCC2", "Quantitative Readout": -0.94}
{"Smiles Input": "ON=C1CCc2cc(-c3nc(C4CCNCC4)[nH]c3-c3ccncc3)ccc21", "Quantitative Readout": -1.76}
{"Smiles Input": "C[C@@H](Oc1cc(-n2cnc3ccc(OCC4CCN(C)CC4)cc32)sc1C(N)=O)c1ccccc1C(F)(F)F", "Quantitative Readout": 0.24}
{"Smiles Input": "NS(=O)(=O)c1ccc(Nc2cc(-c3cccc(O)c3)n[nH]2)cc1", "Quantitative Readout": 5.89}

Query block: Dear colleague, I am looking for the recorded inhibition of the following compound: NS(=O)(=O)c1ccc(N/N=C2\C(=O)Nc3ccc(Cl)cc32)cc1
Result block: 6.29

Query block: Dear colleague, I am looking for the recorded inhibition of the following compound: COc1cc2ncn(-c3cc(OCc4ccccc4S(C)(=O)=O)c(C#N)s3)c2cc1OC
Result block: 1.98

Query block: Dear colleague, I am looking for the recorded inhibition of the following compound: NS(=O)(=O)c1cccc(Nc2cc(-c3ccc(F)cc3)n[nH]2)c1
Result block: 4.24

Query block: Dear colleague, I am looking for the recorded inhibition of the following compound: NS(=O)(=O)c1ccc(-c2cc3ccncc3cc2OCc2ccccc2)cc1
Result block: 5.32

Query block: Dear colleague, I am looking for the recorded inhibition of the following compound: CN(C)C(=O)O[C@H]1CN[C@H](C#Cc2cc3ncnc(Nc4ccc(OCc5cccc(F)c5)c(Cl)c4)c3s2)C1
Result block: -0.55

Query block: Dear colleague, I am looking for the recorded inhibition of the following compound: CCn1c(-c2nonc2N)nc2ccc(F)cc21
Result block: 6.8

Query block: Dear colleague, I am looking for the recorded inhibition of the following compound: Cc1ccc2c(-c3ccnc(Nc4cccc(C(F)(F)F)c4)n3)c(-c3ccccc3)nn2n1
Result block: 6.13

Query block: Dear colleague, I am looking for the recorded inhibition of the following compound: COC(=O)c1ccc2c(c1)C(=Cc1cc(Br)c(O)c(Br)c1)C(=O)N2
Result block: 3.12

---

# inhibition per record follows
System: Epidermal growth factor receptor (Homo sapiens), P00533 [T790M]
Sequence (P00533 whole entry T790M): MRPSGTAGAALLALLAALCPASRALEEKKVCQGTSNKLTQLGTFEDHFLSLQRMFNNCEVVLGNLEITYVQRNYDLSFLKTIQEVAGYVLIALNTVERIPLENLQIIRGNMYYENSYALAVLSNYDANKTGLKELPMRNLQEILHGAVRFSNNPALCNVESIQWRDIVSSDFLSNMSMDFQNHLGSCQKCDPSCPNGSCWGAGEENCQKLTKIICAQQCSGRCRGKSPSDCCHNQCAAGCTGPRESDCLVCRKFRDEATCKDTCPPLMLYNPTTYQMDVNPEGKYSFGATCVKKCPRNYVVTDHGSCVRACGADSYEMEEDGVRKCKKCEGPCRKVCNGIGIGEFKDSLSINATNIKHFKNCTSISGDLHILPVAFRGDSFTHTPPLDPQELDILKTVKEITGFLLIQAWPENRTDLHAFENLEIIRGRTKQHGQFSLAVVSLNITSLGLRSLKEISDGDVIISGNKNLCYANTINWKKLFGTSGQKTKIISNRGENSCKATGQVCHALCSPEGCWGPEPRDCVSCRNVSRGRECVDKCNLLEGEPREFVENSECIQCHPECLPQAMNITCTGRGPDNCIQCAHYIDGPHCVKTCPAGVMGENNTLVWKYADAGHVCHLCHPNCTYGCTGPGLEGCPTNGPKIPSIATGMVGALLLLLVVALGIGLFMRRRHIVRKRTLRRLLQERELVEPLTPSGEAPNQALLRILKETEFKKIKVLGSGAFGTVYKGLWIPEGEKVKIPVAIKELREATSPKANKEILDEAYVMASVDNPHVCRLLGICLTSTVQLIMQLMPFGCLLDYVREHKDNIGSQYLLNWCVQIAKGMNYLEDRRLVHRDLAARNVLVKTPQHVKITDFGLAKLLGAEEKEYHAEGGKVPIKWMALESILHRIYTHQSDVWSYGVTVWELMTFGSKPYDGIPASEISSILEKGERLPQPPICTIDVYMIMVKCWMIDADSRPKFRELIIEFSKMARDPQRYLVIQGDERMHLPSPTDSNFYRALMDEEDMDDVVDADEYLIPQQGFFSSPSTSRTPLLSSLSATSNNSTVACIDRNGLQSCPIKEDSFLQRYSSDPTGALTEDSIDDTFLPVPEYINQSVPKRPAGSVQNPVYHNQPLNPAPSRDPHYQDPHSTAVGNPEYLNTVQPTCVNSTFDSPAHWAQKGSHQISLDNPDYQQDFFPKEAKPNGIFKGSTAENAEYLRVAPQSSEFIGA
Details: at 1 µM
Express the result in % but write the number alone.

{"Smiles Input": "C[C@@H](Oc1cc(-n2cnc3ccc(OC[C@@H](O)CO)cc32)sc1C(N)=O)c1ccccc1Cl", "inhibition / %": -1.48}
{"Smiles Input": "COc1cccc(-n2ncc3c(N/N=C/c4ccc(C)cc4)ncnc32)c1", "inhibition / %": 2.25}
{"Smiles Input": "NS(=O)(=O)c1ccc(-c2cc3ccncc3cc2OCc2ccccc2)cc1", "inhibition / %": 4.44}
{"Smiles Input": "COC(=O)c1cncc(/C=C/c2c(C)cc(O)cc2C)c1", "inhibition / %": 4.21}
{"Smiles Input": "NC(=O)c1sc(-n2cnc3ccccc32)cc1OCc1ccccc1Br", "inhibition / %": 1.85}

Query block: Dear colleague, I am looking for the recorded inhibition of the following compound: Cc1cc(O)cc(C)c1/C=C/c1cncc(C(=O)N(C)C)c1
Result block: 0.44

Query block: Dear colleague, I am looking for the recorded inhibition of the following compound: ON=C1CCc2cc(-c3nc(C4CCNCC4)[nH]c3-c3ccncc3)ccc21
Result block: -1.84

Query block: Dear colleague, I am looking for the recorded inhibition of the following compound: NC(=O)c1cccc(Nc2nccc(Nc3cccc(F)c3)n2)c1
Result block: 1.97

Query block: Dear colleague, I am looking for the recorded inhibition of the following compound: COc1cccc(-n2ncc3c(N/N=C/c4ccc(S(C)(=O)=O)cc4)ncnc32)c1
Result block: 0.63

Query block: Dear colleague, I am looking for the recorded inhibition of the following compound: CN1CCN(C(=O)c2ccc(NC(=O)Nc3ccc(N(C)c4ccnc(Nc5ccc(CS(C)(=O)=O)cc5)n4)cc3)cc2)CC1
Result block: 1.47

This collection of values is drawn from ChEMBL document CHEMBL1961873.
